We begin with a simple list: items and their reported pIC50.
tgt: RNA-directed RNA polymerase (Hepacivirus hominis, UniProt O39930)
Sequence (O39930 whole entry): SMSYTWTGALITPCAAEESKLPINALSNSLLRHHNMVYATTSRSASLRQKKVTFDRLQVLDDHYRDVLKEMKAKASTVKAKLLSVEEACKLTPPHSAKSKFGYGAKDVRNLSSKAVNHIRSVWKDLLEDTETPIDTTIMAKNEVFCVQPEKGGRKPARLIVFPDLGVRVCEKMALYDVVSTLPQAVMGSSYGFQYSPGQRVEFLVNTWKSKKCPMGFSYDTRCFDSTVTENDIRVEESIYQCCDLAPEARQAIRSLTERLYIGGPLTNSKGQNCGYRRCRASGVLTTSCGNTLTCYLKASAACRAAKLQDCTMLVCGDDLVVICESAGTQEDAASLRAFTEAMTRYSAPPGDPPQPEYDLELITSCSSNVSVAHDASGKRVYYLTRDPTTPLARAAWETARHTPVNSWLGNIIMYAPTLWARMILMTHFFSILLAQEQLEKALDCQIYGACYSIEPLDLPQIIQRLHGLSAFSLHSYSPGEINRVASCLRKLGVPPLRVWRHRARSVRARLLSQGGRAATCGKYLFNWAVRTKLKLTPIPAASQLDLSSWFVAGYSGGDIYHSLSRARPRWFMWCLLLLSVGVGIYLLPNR
experiment: Inhibition of HCV 1b BK NS5B RNA polymerase
pIC50: −log10 of the molar value.

{"molecule": "C=CCC1(C(=O)O)CCc2c1[nH]c1c(C)ccc(C#N)c21 (configuration not stated)", "tgt": "RNA-directed RNA polymerase (Hepacivirus hominis, UniProt O39930)", "prefix-operator": "=", "pIC50": 4.96}
{"molecule": "CCCC1(CC(=O)O)CCCc2c1[nH]c1c(F)ccc(F)c21 (configuration not stated)", "tgt": "RNA-directed RNA polymerase (Hepacivirus hominis, UniProt O39930)", "prefix-operator": "<", "pIC50": 4.48}
{"molecule": "CCCC1(C(=O)O)CCCc2c1[nH]c1c(Cl)ccc(C(F)(F)F)c21 (configuration not stated)", "tgt": "RNA-directed RNA polymerase (Hepacivirus hominis, UniProt O39930)", "prefix-operator": "=", "pIC50": 5.24}
{"molecule": "CCCC1(C(=O)O)CCc2c1[nH]c1c(C)cc(F)c(C#N)c21 (configuration not stated)", "tgt": "RNA-directed RNA polymerase (Hepacivirus hominis, UniProt O39930)", "prefix-operator": "=", "pIC50": 5.74}
{"molecule": "CCCC1(CC(=O)O)CCCc2c1[nH]c1c(C(N)=O)ccc(C#N)c21 (configuration not stated)", "tgt": "RNA-directed RNA polymerase (Hepacivirus hominis, UniProt O39930)", "prefix-operator": "<", "pIC50": 4.48}
{"molecule": "CCCC1(C(=O)O)CCc2c1[nH]c1c(Cl)ccc(Cl)c21 (configuration not stated)", "tgt": "RNA-directed RNA polymerase (Hepacivirus hominis, UniProt O39930)", "prefix-operator": "=", "pIC50": 6.26}
{"molecule": "CCCC1(CC(=O)O)CCCc2c1[nH]c1cc(F)cc(F)c21 (configuration not stated)", "tgt": "RNA-directed RNA polymerase (Hepacivirus hominis, UniProt O39930)", "prefix-operator": "=", "pIC50": 4.52}
{"molecule": "CCCC1(C(=O)O)CCc2c1[nH]c1c(C)ccc(C#N)c21 (configuration not stated)", "tgt": "RNA-directed RNA polymerase (Hepacivirus hominis, UniProt O39930)", "prefix-operator": "=", "pIC50": 5.33}
{"molecule": "CCCC1(C(=O)O)CCCc2c1[nH]c1c(C)ccc(C#N)c21 (configuration not stated)", "tgt": "RNA-directed RNA polymerase (Hepacivirus hominis, UniProt O39930)", "prefix-operator": "=", "pIC50": 4.82}
{"molecule": "CCCCC1(C(=O)O)CCc2c1[nH]c1c(F)ccc(C#N)c21 (configuration not stated)", "tgt": "RNA-directed RNA polymerase (Hepacivirus hominis, UniProt O39930)", "prefix-operator": "=", "pIC50": 5.27}
{"molecule": "CCCC1(CC(=O)O)CCCc2c1[nH]c1c(F)c(F)ccc21 (configuration not stated)", "tgt": "RNA-directed RNA polymerase (Hepacivirus hominis, UniProt O39930)", "prefix-operator": "<", "pIC50": 4.48}
{"molecule": "CCCC1(C(=O)O)CCCc2c1[nH]c1c(Cl)ccc(Cl)c21 (configuration not stated)", "tgt": "RNA-directed RNA polymerase (Hepacivirus hominis, UniProt O39930)", "prefix-operator": "=", "pIC50": 5.49}
{"molecule": "CCCC1(C(=O)O)CCc2c1[nH]c1c(F)ccc(C#N)c21 (configuration not stated)", "tgt": "RNA-directed RNA polymerase (Hepacivirus hominis, UniProt O39930)", "prefix-operator": "=", "pIC50": 5.09}
{"molecule": "C=CCC1(C(=O)O)CCc2c1[nH]c1c(C)cc(F)c(C#N)c21 (configuration not stated)", "tgt": "RNA-directed RNA polymerase (Hepacivirus hominis, UniProt O39930)", "prefix-operator": "=", "pIC50": 5.20}
{"molecule": "CCCCC1(C(=O)O)CCc2c1[nH]c1c(C)ccc(C#N)c21 (configuration not stated)", "tgt": "RNA-directed RNA polymerase (Hepacivirus hominis, UniProt O39930)", "prefix-operator": "=", "pIC50": 5.34}
{"molecule": "C=CCC1(C(=O)O)CCc2c1[nH]c1c(Cl)ccc(Cl)c21 (configuration not stated)", "tgt": "RNA-directed RNA polymerase (Hepacivirus hominis, UniProt O39930)", "prefix-operator": "=", "pIC50": 5.92}
{"molecule": "CCCCC1(C(=O)O)CCc2c1[nH]c1c(Cl)ccc(Cl)c21 (configuration not stated)", "tgt": "RNA-directed RNA polymerase (Hepacivirus hominis, UniProt O39930)", "prefix-operator": "=", "pIC50": 5.72}
{"molecule": "CCCC1(CC(=O)O)CCCc2c1[nH]c1c(C#N)ccc(C#N)c21 (configuration not stated)", "tgt": "RNA-directed RNA polymerase (Hepacivirus hominis, UniProt O39930)", "prefix-operator": "=", "pIC50": 5.64}
{"molecule": "CCCCC1(C(=O)O)CCc2c1[nH]c1c(C)cc(F)c(C#N)c21 (configuration not stated)", "tgt": "RNA-directed RNA polymerase (Hepacivirus hominis, UniProt O39930)", "prefix-operator": "=", "pIC50": 5.82}
{"molecule": "CCCC1(C(=O)O)CCCc2c1[nH]c1c(F)ccc(C#N)c21 (configuration not stated)", "tgt": "RNA-directed RNA polymerase (Hepacivirus hominis, UniProt O39930)", "prefix-operator": "=", "pIC50": 5.00}
{"molecule": "CCCC1(CC(=O)O)CCCc2c1[nH]c1c(Cl)cc(Br)cc21 (configuration not stated)", "tgt": "RNA-directed RNA polymerase (Hepacivirus hominis, UniProt O39930)", "prefix-operator": "<", "pIC50": 4.48}
{"molecule": "CCCC1(CC(=O)O)CCCc2c1[nH]c1c(F)ccc(C#N)c21 (configuration not stated)", "tgt": "RNA-directed RNA polymerase (Hepacivirus hominis, UniProt O39930)", "prefix-operator": "=", "pIC50": 5.70}
{"molecule": "CCCC1(CC(=O)O)CCCc2c1[nH]c1c(C)ccc(C#N)c21 (configuration not stated)", "tgt": "RNA-directed RNA polymerase (Hepacivirus hominis, UniProt O39930)", "prefix-operator": "=", "pIC50": 5.68}
{"molecule": "C=CCC1(C(=O)O)CCc2c1[nH]c1c(F)ccc(C#N)c21 (configuration not stated)", "tgt": "RNA-directed RNA polymerase (Hepacivirus hominis, UniProt O39930)", "prefix-operator": "=", "pIC50": 4.84}
{"molecule": "CCCC1(CC(=O)O)OCCc2c1[nH]c1c(C)ccc(C#N)c21 (configuration not stated)", "tgt": "RNA-directed RNA polymerase (Hepacivirus hominis, UniProt O39930)", "prefix-operator": "=", "pIC50": 6.48}
{"molecule": "CCCC1(CC(=O)O)CCCc2c1[nH]c1ccc(Cl)cc21 (configuration not stated)", "tgt": "RNA-directed RNA polymerase (Hepacivirus hominis, UniProt O39930)", "prefix-operator": "<", "pIC50": 4.48}
{"molecule": "CCCC1(CC(=O)O)CCCc2c1[nH]c1ccccc21 (configuration not stated)", "tgt": "RNA-directed RNA polymerase (Hepacivirus hominis, UniProt O39930)", "prefix-operator": "<", "pIC50": 4.48}
